test system: Micropterus salmoides rhabdovirus; experiment: Antiviral activity against micropterus salmoides rhabdo-virus infected in Fat head minnow EPC cells assessed as inhibition of N protein gene expression by RT-qPCR method relative to control; type: functional, organism-based
QUANTITY KIND: pIC50
Give bare numbers, as −log10 of the molar value.

The molecule listed as O=c1ccc2ccc(OCCCCCCn3cnc4ccccc43)cc2o1 shows pIC50 equal to 5.67

====

system: Infectious hematopoietic necrosis virus; experiment: Inhibition of Infectious hematopoietic necrosis virus glycoprotein G assessed as antiviral activity at 25 uM measured by RT-qPCR method relative to control
QUANTITY KIND: inhibition
Number first, unit second.

INSERT INTO assay_data (entry_smiles, tested_system, quantity_kind, recorded_result) VALUES
  ('O=c1ccc2ccc(OCCCCBr)cc2o1', 'Infectious hematopoietic necrosis virus', 'inhibition', '2.59%'),
  ('O=c1ccc2ccc(OCCCn3cnc4ccccc43)cc2o1', 'Infectious hematopoietic necrosis virus', 'inhibition', '27.2%'),
  ('CCCOc1ccc2c(C)cc(=O)oc2c1', 'Infectious hematopoietic necrosis virus', 'inhibition', '-1.75%'),
  ('Cc1cc(=O)oc2cc(OCCCCCCn3ccnc3C)ccc12', 'Infectious hematopoietic necrosis virus', 'inhibition', '89.5%');

Please look at the following compound next.
The compound listed as COc1ccc2c(C)cc(=O)oc2c1 shows inhibition equal to 2.13%

====

system: Infectious hematopoietic necrosis virus; assay: Antiviral activity against Infectious hematopoietic necrosis virus infected in Fathead minnow EPC cells assessed as inhibition of G protein expression measured after 72 hrs by RT-qPCR method; format: functional, organism-based
For each of the compounds below, state its IC50.
Give bare numbers, in µM.

The cases that follow already have their IC50 on record.
INSERT INTO measurements (entry_smiles, quantity_kind, recorded_result) VALUES
  ('Cc1cc(=O)oc2cc(OCCCCCCn3ccnc3C)ccc12', 'IC50', 6.34),
  ('Cc1cc(=O)oc2cc(OCCCCCCn3cnc4ccccc43)ccc12', 'IC50', 4.76),
  ('O=c1ccc2ccc(OCCCCCCn3cnc4ccccc43)cc2o1', 'IC50', 2.96);

Please look at the following compound next.
The compound listed as Cc1cc(=O)oc2cc(OCCCCCCn3ccnc3)ccc12 shows IC50 equal to 7.63

====

system: Infectious hematopoietic necrosis virus; assay: Inhibition of Infectious hematopoietic necrosis virus glycoprotein G assessed as antiviral activity at 25 uM measured by RT-qPCR method relative to control
QUANTITY KIND: inhibition (%)
Answers are plain numbers, in %.

The cases that follow already have their inhibition on record.
INSERT INTO measurements (entry_smiles, recorded_result) VALUES
  ('Nc1ccccc1SCCCCCCOc1ccc2ccc(=O)oc2c1', 49.3),
  ('CCCCOc1cc(=O)oc2ccccc12', 14.5),
  ('CCCCOc1ccc2ccc(=O)oc2c1', 22),
  ('O=c1ccc2ccc(OCCCCCCn3cnc4ccccc43)cc2o1', 99.2),
  ('C=C(C)COc1cc(=O)oc2ccccc12', 9.47);

For each of the items listed, what is its inhibition?
1. C=CCOc1cc(=O)oc2ccccc12
2. C=CCOc1ccc2ccc(=O)oc2c1
3. O=c1ccc2ccc(OCCCBr)cc2o1

1. 2.46
2. -5.86
3. -8.24

For each of the items listed, what is its inhibition?
1. CCCCOc1ccc2c(C)cc(=O)oc2c1
2. Cc1cn(CCCCCCOc2ccc3c(C)cc(=O)oc3c2)cn1
3. Cc1cc(=O)oc2cc(OCCCCCCn3cnc4ccccc43)ccc12

1: -4.37; 2: 65.1; 3: 94.1

For each of the items listed, what is its inhibition?
1. O=c1ccc2ccc(OCCBr)cc2o1
2. O=c1ccc2ccc(OCCCCCCCCn3cnc4ccccc43)cc2o1
3. CCCOc1ccc2ccc(=O)oc2c1
4. CCCOc1cc(=O)oc2ccccc12
5. Cc1cc(=O)oc2cc(OCCCCCCn3ccnc3)ccc12

1. 0.13
2. 46.1
3. 5.73
4. 9.48
5. 82.1

====

test system: Infectious hematopoietic necrosis virus; assay: Inhibition of Infectious hematopoietic necrosis virus glycoprotein G assessed as antiviral activity at 25 uM measured by RT-qPCR method relative to control
# label = 1 if inhibition >= 10% else 0

A selection of reference data follows.
INSERT INTO assay_data (entry_smiles, label_value) VALUES
  ('O=c1ccc2ccc(OCCCCCCN3CCCCC3)cc2o1', 0),
  ('Cc1cc(=O)oc2cc(OCCCCCCBr)ccc12', 0),
  ('COc1cc(=O)oc2ccccc12', 1),
  ('C=C(C)COc1ccc2ccc(=O)oc2c1', 1),
  ('C=C(C)COc1ccc2c(C)cc(=O)oc2c1', 0),
  ('Cc1cc(=O)oc2cc(OCCCCCCn3cncn3)ccc12', 1),
  ('O=c1ccc2ccc(OCCCCCCn3cncn3)cc2o1', 1),
  ('O=c1ccc2ccc(OCCn3cnc4ccccc43)cc2o1', 0);

API: above_or_equal(metric=inhibition, cutoff=10%) for item COc1ccc2ccc(=O)oc2c1 1

API: above_or_equal(metric=inhibition, cutoff=10%) for item NC(=O)c1ncn([C@@H]2O[C@H](CO)[C@@H](O)[C@H]2O)n1 1

API: above_or_equal(metric=inhibition, cutoff=10%) for item O=c1ccc2ccc(OCCCCn3cnc4ccccc43)cc2o1 1

API: above_or_equal(metric=inhibition, cutoff=10%) for item O=c1ccc2ccc(OCCCCCCSc3cccc(O)c3)cc2o1 1
